- System: EKVX NSCLC
- procedure text: NCI-60 one-dose screen, 48 h (100 = growth as untreated, 0 = no growth, -100 = all killed)
- conditions used: 10 µM
Compounds without any hit were thinned out: in the full panel of roughly 83,000, 20% have a hit.
growth by entry:

[
  {
    "molecule": "CC(=O)NCC1=C(C)C=C2C(=O)[C@](C)(O)C3(CC3)C(C)=C21",
    "endpoint unit": "%",
    "growth": -26.1
  },
  {
    "molecule": "COc1ccc(C2NC(=S)NC(C)=C2C(=O)OC(C)C)cc1OC (stereo not drawn)",
    "endpoint unit": "%",
    "growth": 97.9
  },
  {
    "molecule": "C=C1CCC2C3(C)COC(c4cc(F)cc(F)c4)OC3CCC2(C)C1C/C=C1/C(=O)OCC1O (stereo not drawn)",
    "endpoint unit": "%",
    "growth": -42.8
  },
  {
    "molecule": "CC1(C)CC[C@]2(C(=O)N3CCOCC3)CC[C@]3(C)C(=CC[C@@H]4[C@@]5(C)CC[C@H](NCO)C(C)(C)[C@@H]5CC[C@]43C)[C@H]2C1",
    "endpoint unit": "%",
    "growth": -87.8
  },
  {
    "molecule": "COc1cccc(-c2nn(-c3ccccc3)cc2-c2ccnc(NCCCNC(=O)Nc3ccc(F)cc3)c2)c1",
    "endpoint unit": "%",
    "growth": 20.7
  },
  {
    "molecule": "Cc1ccc(-c2nc3ccc(C(=O)N=Nc4c(O)[nH]c5ccc(Br)cc45)cc3[nH]2)cc1",
    "endpoint unit": "%",
    "growth": 94.9
  },
  {
    "molecule": "C=C(C)[C@@H]1CC[C@]2(C(=O)OC)CC[C@]3(C)[C@H](CC[C@@H]4[C@@]5(C)CC[C@H](N)C(C)(C)[C@@H]5CC[C@]43C)[C@@H]12",
    "endpoint unit": "%",
    "growth": -95.7
  },
  {
    "molecule": "O=C(NO)c1ccc(CNC(=O)[C@H]2Cc3c([nH]c4ccccc34)[C@H](c3ccc(Cl)cc3)N2)cc1",
    "endpoint unit": "%",
    "growth": 25
  }
]

* * *

- Tested on: SK-MEL-2 melanoma
- procedure text: NCI-60 one-dose screen, 48 h
- conditions used: 10 µM
Compounds without any hit were thinned out: in the full panel of roughly 83,000, 20% have a hit. Active and inactive are the calls of the source. The calls were made as follows: active = growth percent below 10; inactive = the rest.
Labels: label 1 for active, label 0 for inactive

[
  {
    "molecule": "COc1ccc2c(c1)N=C(C(=O)O)/C2=C/c1sc(Nc2ccc(O)cc2)nc1O",
    "group label": "label 0"
  },
  {
    "molecule": "Cc1noc2c(Cc3ccccc3)nn(CC(=O)N/N=C/c3ccc(Br)cc3)c(=O)c12",
    "group label": "label 0"
  },
  {
    "molecule": "O=C1N/C(=N\\c2nccs2)S/C1=C\\c1cccs1",
    "group label": "label 0"
  },
  {
    "molecule": "Cn1cc(-c2cc(N)n3nc(-c4c[nH]c5ccc(Br)cc45)cc3n2)c2cccnc21",
    "group label": "label 1"
  },
  {
    "molecule": "O=C(Nc1cccc(C(F)(F)F)c1)c1cncc(C#Cc2cnc3ccc(N4CCOCC4)nn23)c1",
    "group label": "label 1"
  },
  {
    "molecule": "CCOC(=O)C1NN(c2ccc(S(N)(=O)=O)cc2)c2nc3nc(-c4cccs4)cc(-c4cccs4)c3c(=O)n21 (centres undefined)",
    "group label": "label 0"
  },
  {
    "molecule": "O/N=C(\\CSc1nnc(-c2c[nH]c3ccccc23)n1-c1ccccc1)c1ccc(Cl)cc1",
    "group label": "label 0"
  },
  {
    "molecule": "Oc1ccc(/C=C2\\CCCc3cc4ccc(O)cc4[o+]c32)c(O)c1",
    "group label": "label 0"
  },
  {
    "molecule": "Cc1ccc(-c2nc(Nc3ccc(C)c(S(N)(=O)=O)c3)c3ccccc3n2)cc1",
    "group label": "label 0"
  }
]

* * *

- System: KM12 colon
- procedure text: NCI-60 one-dose screen, 48 h
- conditions used: 10 µM
The panel holds about 83,000 compounds, 20% with a hit somewhere; the sample as a whole holds those more often. Active and inactive are the calls of the source. The calls were made as follows: active = growth percent below 10; inactive = the rest.
Classes used: active, inactive

[
  {
    "compound": "COc1ccc2nc(Cl)c(-c3cc(-c4ccccc4)nc(=S)[nH]3)cc2c1",
    "group label": "inactive"
  },
  {
    "compound": "CCC(C)S(=O)(=O)c1oc(-c2ccc(C)cc2)nc1S(=O)(=O)c1ccccc1 (centres undefined)",
    "group label": "active"
  },
  {
    "compound": "N#Cc1c(NC(=O)c2ccc(C(O)(C(F)(F)F)C(F)(F)F)cc2)sc2c1CCC(=O)C2",
    "group label": "active"
  },
  {
    "compound": "CC(=O)Nc1nc(-c2ccc(N3CCN(C)CC3)c(NS(=O)(=O)c3cccc4c(N(C)C)cccc34)c2)cs1",
    "group label": "inactive"
  },
  {
    "compound": "Cc1noc2c(Cc3ccc([N+](=O)[O-])cc3)nn(CC(=O)N/N=C/c3ccc(Br)cc3)c(=O)c12",
    "group label": "inactive"
  },
  {
    "compound": "Cn1cc(-c2cc(N)n3nc(-c4c[nH]c5ccc(Br)cc45)cc3n2)c2cccnc21",
    "group label": "active"
  },
  {
    "compound": "Cc1cc2c(c(O)c1Br)-c1ncoc1C(=O)[C@]1(C)CC[C@H](C(C)C)[C@H]21",
    "group label": "inactive"
  },
  {
    "compound": "Cc1ccc(C(=O)N/C(=C2/OCCN2C)[P+](c2ccccc2)(c2ccccc2)c2ccccc2)cc1",
    "group label": "inactive"
  },
  {
    "compound": "O=c1[nH]c2ccccc2cc1CSc1ccc(Nc2nccc(-c3ccc4ccccc4c3)n2)cc1",
    "group label": "inactive"
  }
]

* * *

- Tested on: SK-MEL-2 melanoma
- procedure text: NCI-60 one-dose screen, 48 h (100 = growth as untreated, 0 = no growth, -100 = all killed)
- conditions used: 10 µM
The panel holds about 83,000 compounds, 20% with a hit somewhere; the sample as a whole holds those more often.
Form field: growth (one value per entry).

[
  {
    "compound": "CCOC(=O)C1=C(N)N(c2ccccc2)C2=C(C(=O)CC(C)(C)C2)C1c1ccc(Cl)cc1 (centres undefined)",
    "system tested": "SK-MEL-2 melanoma",
    "growth / %": 30.2
  },
  {
    "compound": "O=C(CNc1nc(-c2ccccc2)cs1)Nc1ccc([N+](=O)[O-])cc1",
    "system tested": "SK-MEL-2 melanoma",
    "growth / %": 31.1
  },
  {
    "compound": "CC(=O)OC[C@@]1(C)C2CC[C@]3(C)C(CC=C4C5CC(C)(C)CC[C@]5(C(=O)Nc5ccccc5)CC[C@]43C)[C@@]2(C)C[C@@H](OC(C)=O)[C@@H]1OC(C)=O (some centres undefined)",
    "system tested": "SK-MEL-2 melanoma",
    "growth / %": 35.4
  },
  {
    "compound": "Cc1ccc(CSc2nc(Cl)c(C#N)c(-c3ccc(F)cc3)n2)cc1",
    "system tested": "SK-MEL-2 melanoma",
    "growth / %": 92.1
  },
  {
    "compound": "COc1ccc2nc(Cl)c(-c3cc(-c4ccccc4)nc(=S)[nH]3)cc2c1",
    "system tested": "SK-MEL-2 melanoma",
    "growth / %": 9.29
  },
  {
    "compound": "O=S(=O)(Nc1ncccn1)c1ccc(-n2c(-c3ccccc3)nc(-c3ccccc3)c2-c2ccccc2)cc1",
    "system tested": "SK-MEL-2 melanoma",
    "growth / %": 106
  },
  {
    "compound": "O=C(CSc1nnc(-c2ccc3nc(-c4ccccc4)[nH]c3c2)o1)Nc1ccc(Br)cc1",
    "system tested": "SK-MEL-2 melanoma",
    "growth / %": 81.2
  },
  {
    "compound": "COc1cc2c3c(n(CCCNCCO)c(=O)c2cc1OC)-c1nc2c(cc1C3=O)OCO2",
    "system tested": "SK-MEL-2 melanoma",
    "growth / %": 116
  },
  {
    "compound": "COc1cc(/C=C/C(=O)c2ccc(F)cc2)ccc1Oc1nc(Nc2ccc(F)cc2)nc(N(C)C)n1",
    "system tested": "SK-MEL-2 melanoma",
    "growth / %": 61
  }
]

* * *

- Test system: UACC-257 melanoma
- procedure text: NCI-60 one-dose screen, 48 h (100 = growth as untreated, 0 = no growth, -100 = all killed)
- conditions used: 10 µM
About 83,000 compounds went through this panel and 20% of them were active in at least one assay; those are over-represented in the sample as a whole.

[
  {
    "compound": "O=C1Nc2cc(Cl)ccc2/C1=C/c1cccc(OCc2ccccc2)c1",
    "growth / %": 1.39
  },
  {
    "compound": "CC(=O)Nc1ccc(-c2cn(-c3cccc(C(=O)Nc4cc(CN5CCOCC5)cc(C(F)(F)F)c4)c3)nn2)cn1",
    "growth / %": -81.5
  },
  {
    "compound": "CC(=O)c1cc(C(=O)c2ccc3c(c2)NC(=O)CO3)n2ccc3ccccc3c12",
    "growth / %": 86.1
  },
  {
    "compound": "CC(=O)c1ccc(NC(=O)NCn2c(=O)[nH]c3ccccc3c2=O)cc1",
    "growth / %": 98.6
  },
  {
    "compound": "Clc1ccc2c(N/N=C/c3c[nH]c4ccc(Br)cc34)ccnc2c1",
    "growth / %": -83.8
  },
  {
    "compound": "CCCCCc1ccc(S(=O)(=O)N(C(C)=O)c2cc(-c3csc(N(C)C(C)=O)n3)ccc2N2CCN(C)CC2)cc1",
    "growth / %": -34.1
  },
  {
    "compound": "COc1ccc(C2NC(=S)NC(C)=C2C(=O)OC(C)C)cc1OC (centres undefined)",
    "growth / %": 119
  },
  {
    "compound": "O=C(Nc1ccc(I)cc1F)c1cc(-c2ccc(F)cc2F)ccc1O",
    "growth / %": -7.17
  },
  {
    "compound": "CN(C(=O)c1ccc(C(F)(F)F)cc1C(F)(F)F)c1sc2c(c1C#N)CCC(=O)C2",
    "growth / %": 99
  },
  {
    "compound": "Cc1cc(C(F)(F)F)ccc1C(=O)Nc1sc2c(c1C#N)CCC(=O)C2",
    "growth / %": -39.5
  },
  {
    "compound": "C=C(C)[C@@H]1CC[C@]2(COP(=O)(OCC)OCC)CC[C@]3(C)[C@H](CC[C@@H]4[C@@](C)(CCCN)[C@H](C(=C)C)CC[C@]43C)[C@@H]12",
    "growth / %": 20.5
  },
  {
    "compound": "O=C1NC(=NC23CC4CC(CC(C4)C2)C3)N/C1=C\\c1ccc2ncsc2c1",
    "growth / %": 26.7
  },
  {
    "compound": "COc1ccc2[nH]c(=O)c(CSc3cccc(N)c3)cc2c1",
    "growth / %": 62.3
  },
  {
    "compound": "O=S(=O)(Nc1ncccn1)c1ccc(-n2c(-c3ccc(Br)cc3)nc(-c3ccccc3)c2-c2ccccc2)cc1",
    "growth / %": 59.4
  },
  {
    "compound": "N#Cc1c(-c2ccc(F)cc2)nc(SCc2ccc([N+](=O)[O-])cc2)nc1N1CCOCC1",
    "growth / %": 54.2
  },
  {
    "compound": "O=C(Cc1ccc2c(c1)CN(C1CCC(=O)NC1=O)C2=O)NCc1cccc2ccccc12 (centres undefined)",
    "growth / %": 32.5
  },
  {
    "compound": "C=C[C@@]12CN3CC[C@]1(O)[C@@](C(=O)OC)(CO2)c1[nH]c2ccccc2c1C3",
    "growth / %": 49.7
  },
  {
    "compound": "Clc1cccc(N/N=C/c2c[nH]c3ccccc23)n1",
    "growth / %": 68
  },
  {
    "compound": "CC(C)CCSc1nc(NC2CC2)c(C#N)c(-c2ccc(C(C)C)cc2)n1",
    "growth / %": 103
  }
]
